# protocol_description: Bitterness reduction in a bitter principle solution, rated by a group of experts (caffeine)
# Assay type: in vivo
# test_context: 100 ppm substance in aqueous 500 ppm caffeine; calculated from the average panel values
recorded_metric: % reduction in the bitter impression

molecule	recorded_metric	recorded_result
COc1cc(/C=C/C(=O)CC(C)=O)ccc1O	% reduction in the bitter impression	21%,
COc1ccc(/C=C/C(=O)CC(C)=O)cc1O	% reduction in the bitter impression	23%
COc1ccc(CCC(=O)CC(C)=O)cc1O	% reduction in the bitter impression	17%, n.s.
O=C(O)c1ccc(O)cc1O [2,4-DHB, 2,4-dihydroxybenzoic acid, reference compound]	% reduction in the bitter impression	3%, n.s.
COc1cc(CCC(=O)CC(C)=O)ccc1O	% reduction in the bitter impression	34%,
